Consider the following compounds and their measured mean fluorescence percent response readings.
# Test system: 2C TCR mouse CD8+ T cells, vesicle binding, flow cytometry
# test_details: modulators of T cell-vesicle binding via LFA-1, confirmation, powder samples, single concentration, mouse 2C TCR, flow cytometry (AID 504568);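 also: lower values mean less vesicle binding and point to an inhibitor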
# setup_conditions: measured here: CD8+ cell vesicle fluorescence mean, stronger effect = lower value
// note: answer is a bare numeric in %

{"columns": ["compound", "mean fluorescence percent response [%]"],
 "data": [
  ["Cc1ccc(S(=O)(=O)N2CCN(S(=O)(=O)N(C)C)CC2)c(C)c1", 139]
]}

[ask] mean fluorescence percent response lookup needed for "Cc1ccccc1C(=O)NCC(=O)N1CCN(C/C=C/c2ccccc2)CC1" , thanks.
[reply] 150

[ask] mean fluorescence percent response lookup needed for O=C(CC1=NCCNC(c2ccccc2)C1)c1ccccc1O (stereo not drawn) , thanks.
[reply] 170

[ask] mean fluorescence percent response lookup needed for "NC(=O)C1CCN(c2nc(-c3cc4ccccc4o3)cs2)CC1" , thanks.
[reply] 140

[ask] mean fluorescence percent response lookup needed for "COc1ccccc1CNC(=O)COc1ccc(C)cc1" , thanks.
[reply] 173

[ask] mean fluorescence percent response lookup needed for "COC(=O)c1ccccc1NC(=O)C1CCN(C(=O)c2cc(OC)cc(OC)c2)CC1" , thanks.
[reply] 172

[ask] mean fluorescence percent response lookup needed for "O=C(CS(=O)(=O)Cc1ccccc1)N1CCc2ccccc21" , thanks.
[reply] 159
